Hi there, I'd appreciate the recorded PBM binding z-score for every entry that follows.
System: VDR:RXRa (NR concentration 270 nM, RXRa partner concentration 90 nM)
Experiment: PBM binding z-score (relative to random genomic background probes); higher = stronger binding; sequences stand for … in GC…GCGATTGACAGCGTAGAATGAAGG

Exam item: What value of measured PBM binding z-score is listed for GATACAGGGTCAGCTAGCGGCCAGAGTATGGAAA ?
Marked response: 2.49

Exam item: What value of measured PBM binding z-score is listed for GCTGCTAGGTCAACTGATAGTCAGCTAAAGCTCG ?
Marked response: 0.945

Exam item: What value of measured PBM binding z-score is listed for CGAACTAGGACAAGGACAGTGAATCTCCGCACGC ?
Marked response: -0.159

Exam item: What value of measured PBM binding z-score is listed for GGAACGAGGGTAAAGTTGATAGCATCTGTCGACG ?
Marked response: 0.137

Exam item: What value of measured PBM binding z-score is listed for GCTAGCAGGCCATTTGGGTCAATCAATGACGGGC ?
Marked response: 0.778

Exam item: What value of measured PBM binding z-score is listed for TCTTGTAGATCGACAGGAGGTTAAGAAAGATCGA ?
Marked response: 0.501

Exam item: What value of measured PBM binding z-score is listed for TCTATTAGTTGAAGGGCTACCGACGAGTCCGTTT ?
Marked response: 0.745

Exam item: What value of measured PBM binding z-score is listed for TCGAGTAGGTTAGTCGGGGCATTGAGCCAACATA ?
Marked response: 1.89

Exam item: What value of measured PBM binding z-score is listed for TCTTGTAGATCGAGCAGGTTAAGAAAGCCTGAGT ?
Marked response: -0.0222

Exam item: What value of measured PBM binding z-score is listed for ACTAGTTGGTCAGCTGAGGTCACCCACAATTCGG ?
Marked response: 4.46

Exam item: What value of measured PBM binding z-score is listed for CAAACTAGGTCACGAAAGGTCGAAGTCGAATGAC ?
Marked response: 5.72

Exam item: What value of measured PBM binding z-score is listed for AGAATCAGGTTACCAAAGATCAGGGAAACGCTTG ?
Marked response: -0.0357

---

Tested on: LXRa homodimer (NR concentration 270 nM)
Experiment: PBM binding z-score (relative to random genomic background probes); higher = stronger binding; sequences stand for … in GC…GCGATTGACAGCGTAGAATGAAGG
Recorded PBM binding z-score determines the label; the label ranges are label 0 (below -0.3), label 1 (-0.3 to below 0.2), label 2 (0.2 or more)

Exam item: Where would AGAACGAGGGCAATGAGTTGATAGAACGGGTGGC land among the classes by reported PBM binding z-score?
Marked response: label 0

Exam item: Where would TCGAGTAGGTTACCAATGGGGCATTTAGCTTTCT land among the classes by reported PBM binding z-score?
Marked response: label 0

Exam item: Where would CGTCAAAGTTCTACTAAGGTAACGTAAAGCACGC land among the classes by reported PBM binding z-score?
Marked response: label 1

Exam item: Where would GCTTACGGGTCAAAGGTTATAGAATGAATAGAAT land among the classes by reported PBM binding z-score?
Marked response: label 2

Exam item: Where would CCTTACGGGTCAATGTTATAGCACGGGTGGTACG land among the classes by reported PBM binding z-score?
Marked response: label 1

Exam item: Where would TCTTGGAGATCAGCAGGTTAAGAAAGCTGGCCAA land among the classes by reported PBM binding z-score?
Marked response: label 0

Exam item: Where would ACCTCTAGGTAAAGATAGTTCAGTGAATGCAAAT land among the classes by reported PBM binding z-score?
Marked response: label 2

Exam item: Where would GCTCGGAGTACAAGGTCAGAGCTTTGTCCGTAGA land among the classes by reported PBM binding z-score?
Marked response: label 1

Exam item: Where would TAGCCTAGGTCATGCGGGCCATTATAGTGTCGGC land among the classes by reported PBM binding z-score?
Marked response: label 2

Exam item: Where would ATCGAAAGGTCGATGGTGAGTATACCCACCCGAA land among the classes by reported PBM binding z-score?
Marked response: label 1

Exam item: Where would ATCGAAAGGTCGAAGTGAGTATAGAGAAAGGGAA land among the classes by reported PBM binding z-score?
Marked response: label 2

Exam item: Where would GCAGACAGGTGAAACGCAGGTAAATCAGGGTGGC land among the classes by reported PBM binding z-score?
Marked response: label 0

---

System: PXR:RXRa (NR concentration 270 nM, RXRa partner concentration 90 nM)
Test: PBM binding z-score (relative to random genomic background probes); higher = stronger binding; sequences stand for … in GC…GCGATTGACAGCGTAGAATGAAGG
Property Label: PBM binding z-score
Output spec: single numeric token, no unit.

Exam item: What value of measured PBM binding z-score is listed for TCTAGTTGGTCACGGATGTCACACACGACGGGTA ?
Marked response: 0.836

Exam item: What value of measured PBM binding z-score is listed for TCATATAGGTACACAGGTGAAAGTCCGTAAGTTA ?
Marked response: 1

Exam item: What value of measured PBM binding z-score is listed for CACACAGGGTCAGCTAGGCCAGAGTAGGGACGGC ?
Marked response: 2.06

Exam item: What value of measured PBM binding z-score is listed for CTCGAAAGTTCGGTTGAGGTGAGTATACGGATAA ?
Marked response: 1.14

Exam item: What value of measured PBM binding z-score is listed for CCCACTGGGCCAAAGGTCATTGATTCCAATGCTC ?
Marked response: 5.36

Exam item: What value of measured PBM binding z-score is listed for ATCTCTAGGTAAAGATAGTTCAATGAATGCAAAT ?
Marked response: 1.65

Exam item: What value of measured PBM binding z-score is listed for AATACAGCGTCATCGTAGGCCAGAGTACGCACAG ?
Marked response: -0.367

Exam item: What value of measured PBM binding z-score is listed for CGTCCAAGGTCAAGTTCAGTGAAAGAGACTCGAA ?
Marked response: 5.19

Exam item: What value of measured PBM binding z-score is listed for CGAACTGGGTCATCCAGGACAGTGAATACATTGA ?
Marked response: 2.01

Exam item: What value of measured PBM binding z-score is listed for CCTACTGGGCCAAAGGTCAATGATTCCAATGCTC ?
Marked response: 4.46

Exam item: What value of measured PBM binding z-score is listed for GTACCAAGGCGAATAGGTCGTTGATGAGTAGGCG ?
Marked response: -0.106

Exam item: What value of measured PBM binding z-score is listed for ACTAGCAGGCCAAGTTAGGGTCACTCAAACAAAG ?
Marked response: 3

Exam item: What value of measured PBM binding z-score is listed for TCTAATTGGTCACGGAGGTCACACACGACGGGTA ?
Marked response: 4.81

Exam item: What value of measured PBM binding z-score is listed for CGTCCAAGGTCAGAGAGGTCAGAGAATGCCGAGT ?
Marked response: 6.31

Exam item: What value of measured PBM binding z-score is listed for CCTGCTAGGTTATGGTCAGCTAATCTACAGTATG ?
Marked response: -0.197

Exam item: What value of measured PBM binding z-score is listed for TAACCAAGGTGAGCTGAGGTCGTTGATCCAACTC ?
Marked response: 4.88

Exam item: What value of measured PBM binding z-score is listed for CCGACTGGGGAAAGGTTACCATAACGCACAGCCA ?
Marked response: 1.26

Exam item: What value of measured PBM binding z-score is listed for TCGAGTAGGTTAGTCGGGGCAGTCAGCCAACATA ?
Marked response: -0.323

Exam item: What value of measured PBM binding z-score is listed for TAGCCTACGTCATGCGGGCCAGTATAGTGTCGGC ?
Marked response: -0.921

Exam item: What value of measured PBM binding z-score is listed for ATAATGAGGTTATACGTAGATCAGGGAAGAAAGT ?
Marked response: 1.7

Exam item: What value of measured PBM binding z-score is listed for AGTCAAAGTTCAGGACGAGGTAACGTAGAGCACG ?
Marked response: 2.79

Exam item: What value of measured PBM binding z-score is listed for GATACAGGGTCAGCTAGAGGCCAAAGTATGGAAA ?
Marked response: 4.24

Exam item: What value of measured PBM binding z-score is listed for CGGCCAAGGTCATAGGAGGTCAGTGAAGACAGAT ?
Marked response: 6.76

Exam item: What value of measured PBM binding z-score is listed for ACTTACGGGTGAACGAGGTTATAGCACGCGTATA ?
Marked response: 1.75

Exam item: What value of measured PBM binding z-score is listed for CCGACTGGGGCAAAGGTTACCGTACTCAGTACGA ?
Marked response: 2.04

Exam item: What value of measured PBM binding z-score is listed for CCTACTGGGCCAAGGTCAGTGATCAGTCAAAGCA ?
Marked response: 1.14

Exam item: What value of measured PBM binding z-score is listed for GAACCAAGGTGAATAGGTCGTTGATGAGTAGGCG ?
Marked response: 0.765

Exam item: What value of measured PBM binding z-score is listed for TAGCCTAGGTCAGATCGGGCCAGTGTACGCTATA ?
Marked response: 1.18

Exam item: What value of measured PBM binding z-score is listed for AGTCAAAGTTCATCTAGGTAACGTAAGATATGCT ?
Marked response: 5

Exam item: What value of measured PBM binding z-score is listed for TCATATACGTAATACAGGTGAAAGTCGGCATCTA ?
Marked response: 0.689

Exam item: What value of measured PBM binding z-score is listed for GCTAGTAGGCCATTTGGGTCACTCAATGACGGGC ?
Marked response: 0.202

Exam item: What value of measured PBM binding z-score is listed for CCTTACGGGTCACTAGGTTATAGCACGACGAGCG ?
Marked response: 2.84

Exam item: What value of measured PBM binding z-score is listed for CAAACTAGGTCAAGGACAGTGAATCTCCGCACGC ?
Marked response: 1.42

Exam item: What value of measured PBM binding z-score is listed for GCTCGGAGGACAAGGTCAGAGGTTTGTCCGTAGA ?
Marked response: 1.78

Exam item: What value of measured PBM binding z-score is listed for TCTATTAATTGATTAGGGCAACCGAAACAGCGGA ?
Marked response: 0.386

Exam item: What value of measured PBM binding z-score is listed for CGTGCTAGGTCATGGTCAGCTAATCTACAGTATG ?
Marked response: 1.5

Exam item: What value of measured PBM binding z-score is listed for AGAGTGAGGTTATTAAGATCAGGGAATTGCGGTC ?
Marked response: 1.43

Exam item: What value of measured PBM binding z-score is listed for GCTGCTAGGTCAGGTTGGTCAGCTCACGGGTACG ?
Marked response: 0.37

Exam item: What value of measured PBM binding z-score is listed for ATCTCTAGGTAAAGATAGTTCAGTGAATGCAAAT ?
Marked response: 0.795

Exam item: What value of measured PBM binding z-score is listed for ATCTCTAGGTAACCAAGTTCAGTGAGTGCCGAAC ?
Marked response: 2.12

Exam item: What value of measured PBM binding z-score is listed for ATATGTAGGTTATCGGCTCATTCAGTTTGCGCAT ?
Marked response: 0.282

Exam item: What value of measured PBM binding z-score is listed for CATTCAGGGTCAGCTAGGCCAGAGTAGGGACGGC ?
Marked response: 2.74

Exam item: What value of measured PBM binding z-score is listed for TCATATAGGTAAACAGGTGAAAGTCCGTAAGTTA ?
Marked response: 0.894

Exam item: What value of measured PBM binding z-score is listed for GCTAGTTGGTCAGTAAAAGGTCATACACCGGTCG ?
Marked response: 4.5

Exam item: What value of measured PBM binding z-score is listed for CAAACTAGGTCAAGGGTCAAAGTCGAGCCAACCA ?
Marked response: 5.66

Exam item: What value of measured PBM binding z-score is listed for TCTTGTAGATCAAGCATGTTAAGAAAGCCTGAGT ?
Marked response: 0.378

Exam item: What value of measured PBM binding z-score is listed for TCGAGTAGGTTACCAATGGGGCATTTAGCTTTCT ?
Marked response: 0.195

Exam item: What value of measured PBM binding z-score is listed for AGTCAAAGTTCAGGAGGAGGTAACGTAAAGCACG ?
Marked response: 3.09

Exam item: What value of measured PBM binding z-score is listed for CAAACTAGGTCACGAAAGGTCAAAGTCGAATGAC ?
Marked response: 7.14

Exam item: What value of measured PBM binding z-score is listed for TCTATTTGGTCAAAGGTCACACACTCGAAATGCG ?
Marked response: 5.91

Exam item: What value of measured PBM binding z-score is listed for CCGACTGGGGCATAAGGTTACTATAAGCCAGCCC ?
Marked response: 0.29
